Entries annotated with measured melting point

Check out these entries, answers already filled in.
In [3]: df
Out[3]:
                                   compound     data_value
0  COC[C@H]1CC[C@@H](n2c(=O)[nH]c3c(C(N)=O)nc(-c4cccc(O)c4)nc32)CC1  324 to 326 °C
1    CCCCCCC1c2cc(CC#N)ccc2-c2ccc(CC#N)cc21  130 to 131 °C
2  CCOc1cc(N(Cc2cccnc2)c2ccc(C(=O)O)cc2)ccc1OC(F)F  178 to 179 °C
3  Cc1c(C)c2c(c(C)c1NC(=O)CCCO)C(c1ccc(C(C)C)cc1)CO2 (stereo not given)  156 to 157 °C
4  CC(CS)C(=O)N(C)c1cncc(C(=O)O)c1 (stereo not given)  190 to 192 °C
5  COC1(c2ccccc2)N=CC(=O)N(C)c2ccc(Cl)cc21 (stereo not given)  146 to 147 °C

Which melting point value is on record for O=C(O)c1ccccc1C(=O)NCCCSc1ccncc1 ?
151 to 153 °C

Quick one: melting point of CCCCCCCCNC(=O)N1CCC(c2nc(N)nc3ccccc23)CC1 ?
85 to 87 °C

Recorded melting point of CCOP(=O)(CC1(O)CC=Cc2ccccc21)OCC (stereo not given) , please.
120 to 121 °C

I am curious: what melting point value has been reported for O=[N+]([O-])c1cc(C(O)CN2CCN(C(c3ccccc3)c3ccccc3)CC2)ccc1Cl (stereo not given) ?
163 °C
